src = PubChem BioAssay (NCI)

test system: MDA-MB-231 breast; assay: NCI tumour cell line growth inhibition, 48 h; in the data active = GI50 below about 0.43 µM; inactive = the rest
Classes used: active, inactive

molecule	classification
COc1ccc(-c2c(C#N)c(N)nc3c2CCCc2ccc(F)cc2-3)cc1OC	active
CCC(C)CC(CC)NCCN1CCN(C(CC)CC(C)CC)C1=S (configuration not stated)	inactive
COc1cc(/C=C/C(=O)c2cc(OC)c(OC)c(OC)c2)cc(OC)c1OC	inactive
Nc1nc(Nc2ccc3c(c2)CCC(N2CCCC2)CC3)nn1-c1cc2c(nn1)-c1ccccc1CCC2 (configuration not stated)	inactive
COc1ccc2sc3c(NCCCNCCO)nc4ccccc4c3c(=O)c2c1	inactive
C=C1CO[C@@H]2C[C@@H]1CCC1(C)OC1CC/C(C)=C/CC[C@@]2(C)O (some centres not stated)	inactive
Oc1ccc(-c2nc3ccc4[nH]ncc4c3c3c2CCCC3)c2cccnc12	active
CCCCC#Cc1cccc(=O)o1	inactive
Cc1[nH]nc(C(=O)Nc2n[nH]c3ccccc23)c1[N+](=O)[O-]	inactive
c1ccc2c(c1)ccc1c3ccccc3ccc21	inactive
COc1ccc(-c2[nH]ncc2-c2cc(OC)c(OC)c(OC)c2)cc1	active
COC(=O)[C@H](Cc1ccccc1)NC(=O)[C@@H](OC)[C@@H]1Cc2cc3cc(OC4CC(OC5CC(O)C(O)C(C)O5)C(O)C(C)O4)c(C)c(O)c3c(O)c2C(=O)[C@H]1OC1CC(OC2CC(OC3CC(C)(O)C(O)C(C)O3)C(O)C(C)O2)C(O)C(C)O1 (some centres not stated)	active
